# Test Name: PSAC antagonists in infected red cells, primary screen, cell-based, P. falciparum Indochina, OD700, 1 h (AID 1154)
# Particulars: P. falciparum Indochina infected RBC osmotic lysis, called active from +8 up or from −8 down
The source made the active and inactive calls.
Possible outcomes: yes (1) for active, no (0) for inactive

{"Compound": "COCCOC(=O)N1C(=O)[C@@]2(c3cc(C#CC4=CCCCC4)ccc31)[C@H](C(=O)NC[C@H](O)c1ccccc1)[C@H]1C(=O)O[C@H](c3ccccc3)[C@H](c3ccccc3)N1[C@@H]2c1ccc(OCCO)cc1", "Label Class": "no (0)"}
{"Compound": "C=CCC(OC(C)=O)[C@@H]1[C@@H](N(Cc2ccc(-c3ccccc3)cc2)C(=O)c2ccc(-c3ccccc3)cc2)c2cc(OCCCO)ccc2N1C(=O)Cc1ccc(OC)cc1 (some centres undefined)", "Label Class": "no (0)"}
{"Compound": "O=C(NCc1ccccc1)[C@@]1(CCS(=O)(=O)c2ccccc2)COC(c2ccc(OCCCO)cc2)=N1", "Label Class": "yes (1)"}
{"Compound": "O=C1c2ccccc2[C@](Cc2ccccc2I)(C(=O)NCc2ccccc2)[C@H](c2ccc(CO)cc2)N1Cc1ccccc1C(F)(F)F", "Label Class": "no (0)"}
{"Compound": "O=C(NCC(O)CO)[C@]1(Cc2ccccc2)N=C(c2ccc(OCCCO)cc2)O[C@@H]1c1ccccc1 (some centres undefined)", "Label Class": "yes (1)"}
{"Compound": "O=C1C2C=CC(C(O)C#Cc3ccccc3)N(Nc3ccccc3)C2C(=O)N1c1ccccc1 (centres undefined)", "Label Class": "no (0)"}
{"Compound": "CC(C)(C)OC(=O)CC[C@]1(C(=O)NCCN2CCOCC2)N=C(c2ccc(OCCCO)cc2)O[C@H]1c1ccccc1CN=[N+]=[N-]", "Label Class": "yes (1)"}
{"Compound": "C=CC[C@@]1(C(=O)N2CCOCC2)N=C(c2ccc(OCCCO)cc2)O[C@@H]1c1ccccc1", "Label Class": "yes (1)"}
{"Compound": "N#Cc1ccc(NN2C(C(O)CCc3ccccc3)C=CC3C(=O)N(c4ccccc4)C(=O)C32)cc1 (centres undefined)", "Label Class": "yes (1)"}
{"Compound": "Cc1cc(C)c(C(O)C2C=CC3C(=O)N(C)C(=O)C3N2N2CCCCC2)c(C)c1 (centres undefined)", "Label Class": "no (0)"}
{"Compound": "C[C@H]1C2[C@H](Cc3ccccc3)NC(=O)[C@]23C(=O)N[C@H](Cc2ccccc2)C(=O)N[C@@H](Cc2ccccc2)C(=O)NC/C=C\\C/C=C/C3[C@@H]2O[C@]12C (some centres undefined)", "Label Class": "no (0)"}
{"Compound": "O=C1C2C=CC(C(O)C(c3ccccc3)c3ccccc3)N(Nc3ccc([N+](=O)[O-])cc3)C2C(=O)N1c1ccccc1 (centres undefined)", "Label Class": "no (0)"}
{"Compound": "COCCOC(=O)N1C(=O)[C@@]2(c3ccccc31)[C@H](C(=O)N1CCc3cc(OC)c(OC)cc3C1)[C@H]1C(=O)O[C@H](c3ccccc3)[C@H](c3ccccc3)N1[C@@H]2c1ccccc1OCCO", "Label Class": "yes (1)"}
{"Compound": "CCOC(=O)[C@H]1C/C=C/C[C@H](C(=O)OCC)C(=O)O[C@H]2[C@@H](OC)O[C@H](CO)[C@@H](OC(=O)Nc3ccc(Br)cc3)[C@@H]2OC1=O", "Label Class": "no (0)"}
